Source listed as patent US12129308B2.

In this section we review reported relative area values for a set of molecules.
experimental.details: analytical size exclusion chromatography (aSEC)
Format: physicochemical
condition: main peak
Write it as a number; the unit % goes unstated.

Record summary for 529C12: anti-MMP13 Nanobody, profile 2, SEQ ID NO: 9 (protein) VHH: DVQLVESGGGLVQPGGSLRLSCVASGSIFSINAMGWYRQAPGKQRELVAAISSGGSTYYADSVKGRFTISRDNSKNTVYLQMNSLRPEDTAVYYCNAAVDASRGLPYELYYYWGQGTLVTVSS : reported relative area = 100

Record summary for 80A01: anti-MMP13 Nanobody, profile 2, SEQ ID NO: 12 (protein) VHH: EVQLVESGGGLVQPGGSLRLSCAASGFTLAYYSIGWFRQAPGKEREGVSCISSGIDGSTYYADSVKGRFTISRDNAKNTMYLQMNNLKPEDTGVYYCAADPSHYYSEYDCGYYGMDYWGKGTLVTVSS : reported relative area = 95

Record summary for 62C02: anti-MMP13 Nanobody, profile 2, SEQ ID NO: 11 (protein) VHH: EVQLVESGGALVRPGGSLRLSCAASGFAFSAAYMSWVRQAPGRGLEWVSSISDDGSKTYYADSVKGRFTISRDNAKNTVYLQMNNLKPDDTAVYYCNTGYGATTTRPGRYWGQGTQVTVSS : reported relative area = 100

Record summary for 517A01: anti-MMP13 Nanobody, profile 2, SEQ ID NO: 10; C010100087 is the parental of Table 6.7.1D (protein) VHH: DVQLVESGGGLVQPGGSLRLSCAASGRTFSSYAMGWFRQAPGKEREFVAAISWSGGSTYYADSVKGRFTISRDNSKNTVYLQMNSLRPEDTAVYYCTAALAVYGPNRYRYGPVGEYNYWGQGTLVTVSS : reported relative area = 100

Record summary for 40E09: anti-MMP13 Nanobody, profile 1, SEQ ID NO: 1 (protein) VHH: EVQLVESGGGSVQAGGSLRLSCAASGSTFSRYSMNWYRQAPGKQREFVAGISVGRITNYAVSVRGRFTISRDNAEGTGYLQMNSLKPEDTAVYYCNAGGLQGYWGLGTQVTVSS : reported relative area = 100
